tested on: HOP-92 NSCLC; assay: NCI-60 one-dose screen, 48 h (100 = growth as untreated, 0 = no growth, -100 = all killed); settings: 10 µM unless noted
The panel holds about 83,000 compounds, 20% with a hit somewhere; the sample as a whole holds those more often.
// class assignment uses growth with these ranges: class 1 = under 10%, class 2 = from 10% up to 90%, class 3 = 90% and over

Compound | Label class
CCN1C(=O)N(CC)C2C1NN=c1s/c(=C3\C(=O)Nc4ccccc43)c(=O)n12 (stereo not given) | class 1
Cc1cc(Nc2cccc(C(F)(F)F)c2)n2c(nc3ccccc32)c1C#N | class 1
COc1cc2ncnc(Nc3ccc(C(=O)/C=C/c4ccc(C(F)(F)F)cc4F)cc3)c2cc1OC | class 3
O=C1OC(=O)C2C1CC=CC2c1ccccc1 (stereo not given) | class 2
COc1ccc(-c2nn(Cc3ccccc3)c3c2-c2oncc2CC3)cc1OC | class 2
CCNC(=S)NNC(=O)c1cc2ccc1CCc1ccc(cc1)CC2 | class 3
Cc1ccc(C2CC(c3cccc(Nc4ccncc4)c3)=NN2c2ccccc2)cc1 (stereo not given) | class 1
CCCCCCCCCCCC(=O)C(CCCCCCCCCC)C(=O)Nc1ccccc1 (stereo not given) | class 3
COc1ccc(Cn2nc(-c3cc(OC)c(OC)c(OC)c3)c3c2CCc2cnoc2-3)cc1OC | class 2
Nc1ccccc1NC(=O)c1ccc(CN2CCC/C(=C\c3cccc(Cl)c3)C2=O)cc1 | class 2
O=C(Cc1ccc(/C=C/C(=O)c2ncc[nH]2)cc1)Nc1ccc(C(F)(F)F)cc1 | class 2
CC(C)(C)OC(=O)N1C/C(=C\c2ccoc2)C(=O)/C(=C/c2ccoc2)C1 | class 3
COc1cc2nc(-c3ccc(C(F)(F)F)cc3)cc(OCCN3CCCC3)c2cc1OC | class 2
O=C(Nc1ccc(F)cc1)c1c(NC(=O)C(F)(F)F)sc2c1CCCCC2 | class 1
O=C(O)/C=C\C(=O)N1C/C(=C\c2ccccc2Cl)C(=O)/C(=C/c2ccccc2Cl)C1 | class 1
COc1ccc(C(=O)c2cc3c(N)c(C(=O)Nc4cccc(Br)c4C)sc3nc2C)cc1 | class 2
Fc1cc(C2=NNC(c3ccc[nH]3)C2)ccc1-n1ccc(C(F)(F)F)n1 (stereo not given) | class 3
CCCC1C(C(=O)OCC)=C(N)Oc2cc(O)ccc21 (stereo not given) | class 2
O=C(CCN1CCCC1)Nc1ccc2c(Nc3ccccc3)c3ccccc3nc2c1 | class 2

###

system: RXF 393 renal; assay: NCI-60 one-dose screen, 48 h (100 = growth as untreated, 0 = no growth, -100 = all killed); details: 10 µM unless noted
About 83,000 compounds went through this panel and 20% of them were active in at least one assay; those are over-represented in the sample as a whole.
Classes (growth): group 1: < 30%; group 2: ≥ 30% and < 90%; group 3: ≥ 90%

Compound | Label class
Cc1cc(Nc2cccc(C(F)(F)F)c2)n2c(nc3ccccc32)c1C#N | group 2
COc1ccc(/C=C/C(=O)c2ccc(OC)c(OC)c2)cc1O | group 2
O=C(NNc1nc(Cl)nc(N2CCN(C(c3ccccc3)c3ccccc3)CC2)n1)c1ccccc1 | group 1
O=C1c2ccccc2-c2c1c1c(NCCCO)nc3ccccc3c1n2Cc1ccccc1 | group 1
Nc1nnc(C(=O)c2cnc3n(c2=O)CCCCC3)s1 | group 3
CC(c1ccccc1)n1ccnc1CO (stereo not given) | group 3
Cc1ccc(C(=O)Nc2ccccc2C(=O)N/N=C(\c2ccccc2)c2ccccn2)cc1 | group 2
COc1ccc(Nc2nc(N)nc3c2CCc2occc2-3)cc1 | group 3
CC(=O)OC1CCC2(C)C(CCC3C4CC=C(C(C)=O)C4(C)OC(=O)CC32)C1 (stereo not given) | group 1
O=C1Nc2ccccc2/C1=N/c1nc(-c2ccc(Cl)cc2)cs1 | group 2
Cc1cc(C)n(Nc2nc3ccccc3[nH]c2=O)c(=O)c1C#N | group 3
NC(=O)c1cccc(-n2ccc3cc(NC(=O)Nc4cc(C(F)(F)F)cc(C(F)(F)F)c4)ccc32)n1 | group 1
CCn1ccnc1C(=O)/C=C/c1ccc(CC(=O)Nc2ccc(F)cc2)cc1 | group 1
CCCCOc1ccc(/C=N/Nc2cc(C)nc3ccc(Cl)cc23)cc1 | group 1
CC(=O)CCSc1ccc(OC(C)=O)cc1 | group 3
C=C(C)[C@@H]1CC[C@]2(C(=O)NCC(=O)OC)CC[C@]3(C)[C@H](CC[C@@H]4[C@@]5(C)Cc6c([nH]c7ccccc67)C(C)(C)[C@@H]5CC[C@]43C)[C@@H]12 | group 2
C=C1C(=O)O[C@H]2[C@H]1CC/C(COC(=O)NCCc1c[nH]c3ccc(Cl)cc13)=C\CC[C@@]1(C)O[C@@H]21 | group 1
COc1cc(C(=O)c2cnc(-c3ccc4cc[nH]c4c3)[nH]2)cc(OC)c1OC | group 2
O=C(Nc1nc(-c2ccccc2Cl)cs1)c1cc(-c2ccccc2)nc2ccc(Cl)cc12 | group 2

###

system: HCT-15 colon; test: NCI-60 one-dose screen, 48 h (100 = growth as untreated, 0 = no growth, -100 = all killed); conditions: 10 µM unless noted
About 83,000 compounds went through this panel and 20% of them were active in at least one assay; those are over-represented in the sample as a whole.
We label by threshold. Values of growth strictly beneath 80% are rule met. Values of 80% and up are rule not met.

Molecule | Label class
COc1cc(NCC(O)CN(CC(C)C)CC(C)C)c2nc(C)ccc2c1 (stereo unspecified) | rule not met
CCN(CC)CCCC(Nc1c2ccc(Cl)cc2nc2ccc(OC)cc12)c1ccc(Cl)cc1 (stereo unspecified) | rule met
O=C(N/N=C/c1cccnc1)c1ccccc1Nc1cccc(C(F)(F)F)c1 | rule met
CN1CCN(c2cnc(C(=O)Nc3cc(F)cc4cccnc34)cn2)CC1 | rule met
N#Cc1c(NC(=O)c2cccc(Br)c2)sc2c1CCCC2 | rule met
O=CNc1cc(Cl)cc(Cl)c1 | rule not met
CC(=O)Nc1ccc(C(=O)Nc2cc(-c3ccccc3)ccc2N)cc1 | rule not met
CN(C)C(C(N)=O)c1ccc(Cl)cc1 (stereo unspecified) | rule not met
COc1ccc(-c2nc(N/N=C/c3cccc(O)c3)nc(N3CCOCC3)c2C#N)cc1 | rule met
FCc1nc2nc(Cl)c(Cl)nc2[nH]1 | rule not met
O=S(=O)(NCCNc1nccc(-c2c(-c3ccc(F)c(O)c3)nc3occn23)n1)c1ccccc1 | rule met

###

tested on: ACHN renal; test: NCI-60 one-dose screen, 48 h (100 = growth as untreated, 0 = no growth, -100 = all killed); settings: 10 µM unless noted
About 83,000 compounds went through this panel and 20% of them were active in at least one assay; those are over-represented in the sample as a whole. Active and inactive are the calls of the source. How the source made its calls: active means growth percent below 10; inactive means the rest.
The entries below come with measured growth values attached.

Compound | growth
CN(C)Cc1c(-c2ccccc2)[nH]c2ccccc12 | 106% (inactive)
O=c1[nH]nc(-c2ccc(Br)cc2)cc1Cc1ccc(O)cc1 | 105% (inactive)
COc1cccc(C(Cc2ccccc2)Nc2ccccc2)c1OC (stereo not given) | 106% (inactive)
Fc1ccc(-n2cc(COc3ncnc4sc5c(c34)CCCC5)nn2)cc1Cl | 102% (inactive)
COc1ccc(-c2nc(N/N=C/c3cccc(O)c3)nc(N3CCOCC3)c2C#N)cc1 | 57.8% (inactive)
C[C@H]1[C@H](C)CC[C@]2(CO)CC[C@]3(C)C(=CC[C@@H]4[C@@]5(C)Cc6c([nH]c7ccccc67)C(C)(C)[C@@H]5CC[C@]43C)[C@H]12 | 60.8% (inactive)
N/C(=N\N=C\c1cc2ccccc2s1)N/N=C/c1cc2ccccc2s1 | 107% (inactive)
COc1ccc(-c2ncc(-c3ccccc3)[nH]2)cc1OC | 111% (inactive)
CCN(CC)CCCC(C)Nc1cc(-c2cccc(OC(F)(F)F)c2)nc2ccc(N3CCCC3)cc12 (stereo not given) | -19.5% (active)
O=C1Nc2c(ccc(Cl)c2Cl)/C1=C/c1ccc(O)cc1 | 87.6% (inactive)

###

System: A549/ATCC NSCLC
Assay: NCI-60 one-dose screen, 48 h
Details: 10 µM unless noted
Protocol: Growth inhibition of the A549/ATCC human Non-Small Cell Lung tumor cell line is measured as a screen for anti-cancer activity. Cells are grown in 96 well plates and exposed to the test compound for 48 hours. Compounds are tested at a single concentration, which is 10^-5 M for most compounds. The reported endpoint is percent growth (GI% or GIPRCNT), where numbers from 0 - 100% represent growth inhibition, and numbers from -100% - 0 represent cell death. […]
The panel holds about 83,000 compounds, 20% with a hit somewhere; the sample as a whole holds those more often. Activity calls are given as the source filed them. The calls were made as follows: active = growth percent below 10; inactive = the rest.
Possible outcomes: active, inactive

Compound | Label class
Cc1ccc(C2CC(c3cccc(Nc4ccncc4)c3)=NN2c2ccc(Cl)cc2)cc1 (configuration not stated) | active
COc1cccc(/C=C2\COc3ccc(-c4ccccc4)cc3C2=O)c1 | inactive
COc1ccc(CC(C)=C(c2ccc(OCCN(C)C)cc2)c2ccc(OCCN(C)C)cc2)cc1 | inactive
O=C(Nc1nc(-c2ccc(Br)cc2)cs1)c1cc(-c2ccc(Br)cc2)nc2ccc(Cl)cc12 | inactive
CN1CCN(c2ccc3nc(-c4cc(C(C)(C)C)c(O)c(C(C)(C)C)c4)[nH]c3c2)CC1 | inactive
COC(=O)CCCCCCCCC1(C)C=CC(C(C)O)=CC1 (configuration not stated) | inactive
BrC(Br)(Br)c1cnc2ccccc2n1 | inactive
COc1cccc2c1C(=O)c1c(O)c3c(c(O)c1C2=O)C[C@@](O)(C(=O)CO)C[C@@H]3O[C@H]1C[C@H](N)[C@@H](O)[C@H](C)O1 | active
COc1ccc(/C=C(/c2ccccc2)[N+](=O)[O-])cc1 | active
CCCCCCCCN1C(=O)/C(=c2\sc3n(c2=O)C2C(NN=3)N(CC)C(=O)N2CC)c2ccccc21 (configuration not stated) | inactive
[2H]C1([2H])NC([2H])([2H])C([2H])([2H])N(c2ccc(Nc3ncc4cc(C(=O)N(C)C)n(C5CCCC5)c4n3)nc2)C1([2H])[2H] | inactive
CC(O)/C=C/C=C/C(O)CC/C=C/C(=O)NCC(C)(C)O (configuration not stated) | inactive
COc1cc(NCC(O)CN(CC(C)C)C2CCCC2)c2ncccc2c1 (configuration not stated) | inactive
COc1cccc(NC(=O)c2cccc(-c3cc(=O)c4c(OC)c(OC)c(OC)cc4o3)c2)c1 | inactive
Cc1cc(C(=O)Nc2ncnc3nc[nH]c23)no1 | inactive
CC(=O)N1N=C(c2cccc(Nc3ccncc3)c2)CC1c1ccccc1 (configuration not stated) | inactive
COc1ccc(Cn2nc(-c3cc(OC)c(OC)c(OC)c3)c3c2CCc2cnoc2-3)cc1OC | inactive
O=C1Nc2cc(-c3ccncc3)ccc2/C1=C/c1ccc[nH]1 | inactive
NS(=O)(=O)c1cccc(NC(=O)C(=O)C2C(=O)Nc3ccccc32)c1 (configuration not stated) | inactive
O=C(Nc1nc2ccc(C(=O)N3CCN(c4ccc(Cl)c(Cl)c4)CC3)cc2s1)c1ccc(NCCc2ccccc2)c([N+](=O)[O-])c1 | inactive
O=S(=O)(NCCCNc1nccc(-c2c(-c3cccc(O)c3)nc3occn23)n1)c1ccc(Br)cc1 | inactive
O=C(OC(OC(=O)c1cc(Cl)cc(Cl)c1)c1cccc2ccccc12)c1ccccc1 (configuration not stated) | inactive
COc1cccc(CCC(=O)c2cc3c(N)c(C(=O)Nc4ccccc4)sc3nc2C)c1 | inactive
C#Cc1cccc(NC(=O)Nc2cccc(N=C=S)c2)c1 | inactive
Cc1cccc(Oc2ccc(Nc3ncnc4ccc(NC(=O)CNCCO)cc34)cc2Cl)c1 | inactive
O=S(=O)(NCCCNc1nccc(-c2c(-c3cccc(O)c3)nc3occn23)n1)c1ccc(F)cc1 | inactive
O=S(=O)(O)c1cc(O)c2c(N=Nc3ccc(Nc4ccccc4)c4c(S(=O)(=O)O)cccc34)cc(S(=O)(=O)O)cc2c1 | inactive
c1ccc(-c2nn(-c3ccccc3)[n+](-c3cccc4ccccc34)n2)cc1 | inactive
C#Cc1cccc(NC(=O)Nc2ccc(NC(=O)CCl)cc2)c1 | inactive
CC1(C)CN(c2cnc(C(=O)Nc3cc(F)cc4cccnc34)cn2)CCN1 | inactive
COc1cc(NCC(O)CN(CC(C)C)CC(C)C)c2nc(C)ccc2c1 (configuration not stated) | inactive
COc1ccc(-c2c(-c3ccccc3)noc2N)cc1OC | inactive
